- measurement_parameters: buffer; pH 7.4; 200.0 µM
assay_endpoint: solubility kinetic (µg/mL)
Provide only the numeric value, understood in µg/mL.

Use these answered entries as a reference point.
compound	solubility kinetic [µg/mL]
COc1cc(NC(=O)c2ccc(OCc3c(C)noc3C)c(OC)c2)cc(OC)c1	5.4
CCn1c(O)c(C=NC2CCCC(C)C2C)sc1=S (configuration not stated)	4.3
COc1ccc(/C=C/C(=O)OCC(=O)c2ccc[nH]2)cc1	5
CCOc1ccc(C2=CSC3=NCCN23)cc1	22.9
O=C(Nc1ccccc1Br)c1c(F)cccc1Cl	13.5

Now look at this entry.
stdin: Record request: solubility kinetic value, item S=c1nc(COc2ccccc2)[nH]c2ccccc12
stdout: 8
